# protocol: Intrinsic clearance in human liver microsomes by LC-MS/MS analysis
# Assay type: ADME
# recorded conditions: read-out: CLH
Where a SMILES comes first, the peptide text is derived from it. [ ]: non-standard residue; d: D form. NMeW = CN[C@@H](Cc1c[nH]c2ccccc12)C(=O)O; NMeY = CN[C@@H](Cc1ccc(O)cc1)C(=O)O; NMeF = CN[C@@H](Cc1ccccc1)C(=O)O; NMeL = CN[C@@H](CC(C)C)C(=O)O; dNMeL = CN[C@H](CC(C)C)C(=O)O; NMeA = CN[C@@H](C)C(=O)O

[
  {
    "compound": "CC(C)C[C@@H]1NC(=O)[C@H](Cc2ccc(O)cc2)N(C)C(=O)[C@H]2CCCN2C(=O)[C@H](CC(C)C)NC(=O)[C@H](CC(C)C)N(C)C(=O)[C@@H](CC(C)C)N(C)C1=O (cyclo(L[dNMeL][NMeL]L[dP][NMeY]))",
    "CLint scaled / mL/min/kg": 120
  },
  {
    "compound": "CC(C)C[C@@H]1NC(=O)[C@H](Cc2ccc(O)cc2)N(C)C(=O)[C@H]2CCCN2C(=O)[C@H](CC(C)C)NC(=O)[C@H](C)N(C)C(=O)[C@@H](CC(C)C)N(C)C1=O (cyclo(L[dNMeL][NMeA]L[dP][NMeY]))",
    "CLint scaled / mL/min/kg": 190
  },
  {
    "compound": "CC(C)C[C@@H]1NC(=O)[C@H](Cc2ccc(O)cc2)N(C)C(=O)[C@H]2CCCN2C(=O)[C@H](CC(C)C)NC(=O)[C@H](Cc2c[nH]c3ccccc23)N(C)C(=O)[C@@H](CC(C)C)N(C)C1=O (cyclo(L[dNMeL][NMeW]L[dP][NMeY]))",
    "CLint scaled / mL/min/kg": 56
  },
  {
    "compound": "CC(C)C[C@@H]1NC(=O)[C@H](Cc2ccc(O)cc2)N(C)C(=O)[C@H]2CCCN2C(=O)[C@H](CC(C)C)NC(=O)[C@H](Cc2ccccc2)N(C)C(=O)[C@@H](CC(C)C)N(C)C1=O (cyclo(L[dNMeL][NMeF]L[dP][NMeY]))",
    "CLint scaled / mL/min/kg": 170
  }
]

---

# protocol: Lipophilicity, log D of the compound at pH 7.4 by shake-flask method
# Type: physicochemical
# recorded conditions: buffer
Where a SMILES comes first, the peptide text is derived from it. [ ]: non-standard residue; d: D form. NMeY = CN[C@@H](Cc1ccc(O)cc1)C(=O)O; NMeLys(Me) = CNCCCC[C@H](NC)C(=O)O; NMeD = CN[C@@H](CC(=O)O)C(=O)O; dNMeL = CN[C@H](CC(C)C)C(=O)O
Recorded logD for the following compounds

[
  {
    "compound": "CNCCCC[C@H]1C(=O)N[C@@H](CC(C)C)C(=O)N2CCC[C@@H]2C(=O)N(C)[C@@H](Cc2ccc(O)cc2)C(=O)N[C@@H](CC(C)C)C(=O)N(C)[C@H](CC(C)C)C(=O)N1C (cyclo(L[dNMeL][NMeLys(Me)]L[dP][NMeY]))",
    "logD": 0.723
  },
  {
    "compound": "CC(C)C[C@@H]1NC(=O)[C@H](Cc2ccc(O)cc2)N(C)C(=O)[C@H]2CCCN2C(=O)[C@H](CC(C)C)NC(=O)[C@H](CC(=O)O)N(C)C(=O)[C@@H](CC(C)C)N(C)C1=O (cyclo(L[dNMeL][NMeD]L[dP][NMeY]))",
    "logD": 0.477
  }
]
